Overview of recorded polymerase ribozyme fitness (log ratio) for various variants
B1: TPR 5TU (parent)
chain: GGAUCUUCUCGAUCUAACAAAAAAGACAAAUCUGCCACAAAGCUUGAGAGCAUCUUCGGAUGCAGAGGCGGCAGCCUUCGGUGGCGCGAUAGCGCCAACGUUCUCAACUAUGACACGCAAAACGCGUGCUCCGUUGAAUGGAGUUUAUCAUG

Variants of: B1
Assay: polymerase ribozyme fitness, log enrichment relative to wild type (log ratio); higher = more active; in vitro selection for triplet polymerase activity
Fewer inactive variants are shown than the library holds.
metric: polymerase ribozyme fitness (log ratio)

- G59U G88C C116G: -3.85
- C14G A91U G143U: -3.88
- U45A A47C: -3.93
- G62C G83A: -2.25
- A21C G83C C87A G92U C116G: -1.27
- C18G G94A: -1.09
- A40C C95U: -0.646
- A37U C54A C57A C93U: -3.28
- U139A G143U U146G: -3.74
- A40C G48C G81U C85A: -1.52
- A41C A106G G133C A147U: -1.68
- U82G U101G: 0.433
- A37C A60C C69U C85A U146G: -3.76
- U33C A40C G68U C95A U102C C132G: -3.48
- C54G C85A: -3.85
- A49U C85G: -2.96
- C85A U135A: -0.589
- G59A A66G: -3.24
- G50A A89U C99U: -2.94
- C35U U55A C96U: -0.218
- A22G A52U G84A C123A: -2.11
- C51U U61A G86C: -4.06
- C85U C129U: -0.359
- C10U G50U C95U: -3.16
- G80A U144G: 1.27
- G46U U82C C95U: -0.628
- A12U C87U A119U: -1.23
- A24U G42A C108U: 1.52
- A19G U55A: -0.576
- U53G G59A: -1.37
